assay_summary: Pharmacokinetics following oral (PO) dosing
Type: in vivo, Sprague-Dawley rats
conditions: male, Sprague-Dawley, rat, plasma; hydroxycodone series, 5.0 mg/kg oral, Mean ± SD
Source text: There were 3 rats/group. All animals were food fasted overnight. […] The predose sample was collected from the JVC. Following the last collection point, the animals were euthanized.
# log10 AUC listing for each entry below
Could you please treat all values as log10 of AUC in ng·h/mL?

In the examples that follow, each entry is paired with its recorded log10 AUC.
{"compound": "COCCOCCOC1CCC2(O)C3Cc4ccc(OC)c5c4C2(CCN3C)C1O5 (stereo not drawn) [α-6-mPEG2-O-hydroxycodone, α-6-mPEG2-O-oxycodone]", "measurement_type": "log10 AUC", "test_result": 1.99}
{"compound": "COCCOCCOCCOCCOC1CCC2(O)C3Cc4ccc(OC)c5c4C2(CCN3C)C1O5 (stereo not drawn) [α-6-mPEG4-O-hydroxycodone, α-6-mPEG4-O-oxycodone]", "measurement_type": "log10 AUC", "test_result": 2.03}

I'd like to know its log10 AUC. The compound in question is COCCOCCOCCOCCOCCOCCOC1CCC2(O)C3Cc4ccc(OC)c5c4C2(CCN3C)C1O5 (stereo not drawn) [α-6-mPEG6-O-hydroxycodone, α-6-mPEG6-O-oxycodone] 2.77

Try the compound COCCOC1CCC2(O)C3Cc4ccc(OC)c5c4C2(CCN3C)C1O5 (stereo not drawn) [α-6-mPEG1-O-hydroxycodone, α-6-mPEG1-O-oxycodone] 1.24

Same read-out for COCCOCCOCCOCCOCCOCCOCCOC1CCC2(O)C3Cc4ccc(OC)c5c4C2(CCN3C)C1O5 (stereo not drawn) [α-6-mPEG7-O-hydroxycodone, α-6-mPEG7-O-oxycodone] ? 2.53
